Target: 11β-HSD1 Dehydrogenase (Rattus norvegicus)
Sequence (P16232 whole entry): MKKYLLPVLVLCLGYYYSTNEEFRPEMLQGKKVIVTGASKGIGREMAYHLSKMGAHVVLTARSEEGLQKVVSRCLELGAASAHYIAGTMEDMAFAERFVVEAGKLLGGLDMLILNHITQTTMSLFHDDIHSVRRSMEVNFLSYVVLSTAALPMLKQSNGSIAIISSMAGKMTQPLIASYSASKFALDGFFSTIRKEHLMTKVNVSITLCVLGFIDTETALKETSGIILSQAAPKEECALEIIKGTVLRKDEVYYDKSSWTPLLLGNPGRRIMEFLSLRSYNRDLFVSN
Assay: 11β-HSD1 dehydrogenase assay in rat Leydig cell homogenates;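 also: tritiated corticosterone conversion by 11β-HSD1 dehydrogenase in Leydig homogenates with 3 mM NADP at pH 8.4, 37 °C for 10 min, products resolved by HPLC, inhibition relative to uninhibited enzyme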
Format: biochemical
Parameters: Freshly prepared rat Leydig cell homogenates were chosen since they provide a rich and reliable source of both 11β-HSD1 dehydrogenase and reductase; from tissue; host or cells: rat testicular Leydig cells, homogenate
Conditions: rat Leydig cell homogenates, 600 nM corticosterone, NADP; corticosteroid series
readout.label: Leydig Cell 11β-HSD1 Dehydrogenase [S]= 600 nM

- compound: "C[C@]12CC[C@@H](O)C[C@H]1CC[C@@H]1[C@@H]2[C@@H](O)C[C@]2(C=O)[C@@H](C(=O)CO)CC[C@@H]12"
  val: "inactive"
- compound: "C[C@]12CCC(=O)C=C1CC[C@@H]1[C@@H]2[C@@H](O)C[C@]2(C=O)[C@@H](C(=O)CO)CC[C@@H]12 [Aldosterone, 4-Pregnen-11,21-diol-3,20-dione-18-al, reference compound]"
  val: "inactive"
- compound: "C[C@]12CC[C@@H](O)C[C@H]1CC[C@@H]1[C@@H]2[C@@H](O)C[C@@]2(C)[C@H]1CC[C@]2(O)C(=O)CO"
  val: "inactive"

These entries and their values trace back to patent US20070093460A1.
